target: T1, human plasma kallikrein (human, UniProt P03952 20-390; P03952 391-638); test: Ki,app as an IgG, steady state enzyme kinetics, inhibition of human pKal
T1 construct: two disulfide linked chains; also called pKal; human pKal
T1 sequence (P03952 20-390, chain 1 of 2): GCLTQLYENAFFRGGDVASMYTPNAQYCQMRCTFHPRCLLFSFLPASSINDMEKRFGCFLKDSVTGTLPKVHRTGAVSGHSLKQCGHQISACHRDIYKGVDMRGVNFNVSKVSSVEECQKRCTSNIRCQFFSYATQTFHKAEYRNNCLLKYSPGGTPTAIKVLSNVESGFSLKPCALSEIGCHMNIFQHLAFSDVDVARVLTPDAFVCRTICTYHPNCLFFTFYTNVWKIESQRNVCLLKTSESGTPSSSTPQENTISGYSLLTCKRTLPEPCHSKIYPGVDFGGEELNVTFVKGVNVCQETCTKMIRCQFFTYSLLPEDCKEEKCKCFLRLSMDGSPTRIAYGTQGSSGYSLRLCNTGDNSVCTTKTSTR
T1 sequence (P03952 391-638, chain 2 of 2): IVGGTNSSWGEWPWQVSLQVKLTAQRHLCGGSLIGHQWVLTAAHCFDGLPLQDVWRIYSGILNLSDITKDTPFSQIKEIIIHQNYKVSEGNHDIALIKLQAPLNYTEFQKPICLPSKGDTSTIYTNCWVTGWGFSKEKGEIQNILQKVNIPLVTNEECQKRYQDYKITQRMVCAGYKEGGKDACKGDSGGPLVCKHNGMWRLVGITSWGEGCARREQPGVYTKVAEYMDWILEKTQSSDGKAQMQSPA
Can you tell me Ki for the items I'm about to list?

For every record below, what is its Ki?
1. X67-F10 (IgG) (antibody, V domains shown, printed HC runs into CH1) VH: EVQLLESGGGLVQPGGSLRLSCAASGFTFSAYSMIWVRQAPGKGLEWVSYIRPSGGRTTYADSVKGRFTISRDNSKNTLYLQMNSLRAEDTAVYYCARGGLLLWTRELKSNYFDYWGQGTLVTVSS VL: DIQMTQSPSSLSAFVGDRVTITCRASQPIDNYLNWYHQKPGKAPKLLIYAASRLQSGVPSRLSGSGFGTDFTLTISSLQPEDFGNYYCQQSYTVPYTFGGGTKVEIR
2. X67-C09 (IgG) (antibody, V domains shown, printed HC runs into CH1) VH: EVQLLESGGGLVQPGGSLRLSCAASGFTFSAYSMIWVRQAPGKGLEWVSYIRPSGGRTTYADSVKGRFTISRDNSKNTLYLQMNSLRAEDTAVYYCARGGLLLWGRELKSNYFDYWGQGTLVTVSS VL: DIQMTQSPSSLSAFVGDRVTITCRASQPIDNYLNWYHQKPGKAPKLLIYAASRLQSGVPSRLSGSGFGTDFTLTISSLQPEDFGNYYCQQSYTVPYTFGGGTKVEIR

1. 1.3 nM
2. 8.6 nM
